Parameter IC50, splenocyte assay, 19 pM hIL-23: see the listing below.
Molecular target: T1, recombinant human IL-23 (p19/p40) (human, UniProt Q9NPF7 20-189; P29460 23-328)
T1 sequence (looked up) 1: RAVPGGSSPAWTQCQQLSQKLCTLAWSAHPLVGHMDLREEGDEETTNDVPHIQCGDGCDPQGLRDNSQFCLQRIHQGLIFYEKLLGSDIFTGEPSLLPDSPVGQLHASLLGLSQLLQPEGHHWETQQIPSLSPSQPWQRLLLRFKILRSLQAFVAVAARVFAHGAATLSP
T1 sequence (looked up) 2: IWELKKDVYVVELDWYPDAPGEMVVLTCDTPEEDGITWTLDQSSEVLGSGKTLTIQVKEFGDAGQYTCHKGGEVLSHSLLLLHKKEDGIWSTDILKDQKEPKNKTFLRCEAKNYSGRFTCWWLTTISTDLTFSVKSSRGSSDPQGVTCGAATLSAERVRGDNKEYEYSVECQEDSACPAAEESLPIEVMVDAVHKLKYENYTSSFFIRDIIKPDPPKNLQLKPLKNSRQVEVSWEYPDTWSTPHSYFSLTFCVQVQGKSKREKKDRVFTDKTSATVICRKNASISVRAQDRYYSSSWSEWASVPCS
Assay: cell-based or functional assay
Respond with the bare value in pM.

Binder | Value Unit | IC50, splenocyte assay, 19 pM hIL-23
P23IL119A3-35GS-81G2 (bispecific antibody) EVQLVESGGGLVQAGGSLRLSCAASGRIFSLPASGNIFNLLTIAWHRQAPGMQRELVATINSGSRTNYADSVKGRFTISRDNAQKTVYLQMNNLKPEDTAVYYCQTSGSGSPNFWGQGTQVTVSSGGGGSGGGGSGGGGSGGGGSGGGGSGGGGSGGGGSEVQLVESGGGLVQPGGSLRLSCIASGLPFSTKSMGWFRQAPGKEREFVARISPGGTSRYYGDFVKGRFAISRDNAKNTTWLQMNSLKAEDTAVYYCASGERSTYIGSNYYRTNEYDYWGTGTQVTVSS | pM | 12
P23IL37D5 (VHH, p19+ Nanobody; c-myc, His6-tagged; also called PIL2337D5) VHH: EVQLVESGGGLVQPGGSLRLSCAASGFTLDYLAIGWFRQAPGKEREGVSCVSSSGQYTYYADSVKGRFTISRDNAESTVYLQMNSLKPEDTAVYYCATDPECYRVRGYYNGEYDYWGQGTQVTVSS | pM | 24
P23IL119A3-35GS-81A12 (bispecific antibody) EVQLVESGGGLVQAGGSLRLSCAASGRIFSLPASGNIFNLLTIAWHRQAPGMQRELVATINSGSRTNYADSVKGRFTISRDNAQKTVYLQMNNLKPEDTAVYYCQTSGSGSPNFWGQGTQVTVSSGGGGSGGGGSGGGGSGGGGSGGGGSGGGGSGGGGSEVQLVESGGGLVQAGGSLRLSCAASGRTLSSYAMGWFRQAPGKEREFVARISQGGTAIYYADSVKGRFTISRDNAKNTVYLQMNSLKPEDTAVYYCAKDPSPYYRGSAYLLSGSYDSWGQGTQVTVSS | pM | 7

Q: Look at this binder and give its reported IC50, splenocyte assay, 19 pM hIL-23. P23IL119A3-35GS-81G2-GGGC-PEG40 linear (bispecific antibody, linear mPEG40 (maleimide) on the C-terminal Cys of GGGC) EVQLVESGGGLVQAGGSLRLSCAASGRIFSLPASGNIFNLLTIAWHRQAPGMQRELVATINSGSRTNYADSVKGRFTISRDNAQKTVYLQMNNLKPEDTAVYYCQTSGSGSPNFWGQGTQVTVSSGGGGSGGGGSGGGGSGGGGSGGGGSGGGGSGGGGSEVQLVESGGGLVQPGGSLRLSCIASGLPFSTKSMGWFRQAPGKEREFVARISPGGTSRYYGDFVKGRFAISRDNAKNTTWLQMNSLKAEDTAVYYCASGERSTYIGSNYYRTNEYDYWGTGTQVTVSSGGGC
A: 7.1

Q: Consider next the binder P23IL-121A2-35GS-81G2 (bispecific antibody) EVQLVESGGGLVQAGGSLRLSCAASGSIFNFNYMGWFRQAPGKEREFVAAIRWSGSSTYYADSVKGRFTISRDDAKNTVALQMNSLKPEDTAIYYCALRKGIPYSTSDRVIKGVNDYDYWGQGTQVTVSSGGGGSGGGGSGGGGSGGGGSGGGGSGGGGSGGGGSEVQLVESGGGLVQPGGSLRLSCIASGLPFSTKSMGWFRQAPGKEREFVARISPGGTSRYYGDFVKGRFAISRDNAKNTTWLQMNSLKAEDTAVYYCASGERSTYIGSNYYRTNEYDYWGTGTQVTVSS in the same way.
A: 154

Data provenance is patent US20110053865A1.
